Here, each record is paired with measured inhibition data.
protocol details: 384-well plate pilot, post-Golgi transport modulator project, inhibition of yeast transport mutant growth (AID 636); note: test concentration not given here
reported conditions: absorbance 615 nm, about 18 h, hits give high values
Number only, in %; omit the unit.

The examples below pair each entry with its known result.
• COc1ccc(OCC(=O)Nc2cccc3ncccc23)cc1 = -3.73
• O=C(COc1nnc2ccccn12)N1CCN(S(=O)(=O)c2ccccc2)CC1 = -5.13
• Cc1cc(C)nc(N2CCCC(C(=O)Nc3nc4ccc(S(C)(=O)=O)cc4s3)C2)n1 (stereo unspecified) = 0

In: Fill in: inhibition of CC(=O)N1CCc2cc(S(=O)(=O)CCC(=O)N3CCN(c4ccccn4)CC3)ccc21 is ___
Out: 4.67

In: Quick one: inhibition of CC(C)(C)Nc1nc(NC(C)(C)C)nc(-n2ccnc2)n1 ?
Out: -0.26

In: // query inhibition value for entry CCC(=NC(C)c1ccccc1)c1c(O)n(C)c(=O)n(C)c1=O (stereo unspecified)
Out: -2.89

In: Look up inhibition for this compound: CCOc1cc(C(=O)NCc2nnc(SCC(=O)OC)n2C)cc(OCC)c1OCC
Out: -6.84

In: What does the record list as inhibition for c1ccc2ncc(-n3cnnn3)cc2c1 ?
Out: -3.24

In: Reported inhibition, compound CCCS(=O)(=O)N1CCC(C(=O)N2CCCC2)CC1 : ____
Out: -3.55

In: Dear colleague, I am looking for the recorded inhibition of the following compound: Cc1ccc(CSC2=NCCN2C(=O)c2ccco2)cc1
Out: -3.85

In: inhibition for CN(Cc1nc(-c2ccncc2)no1)S(=O)(=O)c1ccccc1 ?
Out: -7.57
